Provenance of the data: the supplement of paper PMC10567573

B1: PPFIA4 (parent)
chain: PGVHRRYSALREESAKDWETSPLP

# Variants of: B1
# methodDescription: protein stability index of a GFP-peptide fusion (GPS, HEK-293T) (PSI 1-6); higher = more stable;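 further: lentivirally expressed fusions sorted by FACS into six bins by GFP to DsRed ratio, PSI derived from sequencing read proportions per bin multiplied by bin number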
# conditionInfo: c terminus: a fixed tail appended
Lab note: anything with protein stability index at or over 4 counts as true (1); the rest go in false (0).

Sample answers from the record:
{"orderedResidues": "PGVHRRYSADREESAKDWETSPLP [L10D]", "category": "true (1)"}
{"orderedResidues": "PGVHRRYSALREESAKDWERSPLP [T20R]", "category": "false (0)"}
{"orderedResidues": "PGVLRRYSALREESAKDWETSPLP [H4L]", "category": "false (0)"}

Consider the record given below.
Is reported protein stability index greater than or equal to 4 here: PGVHRRYSALREENAKDWETSPLP [S14N]
true (1)
